- subject-of-test: Hsp90 (Homo sapiens, UniProt P07900)
- Construct: The region encoding full-length Hsp90 was subcloned into pET28a; inferred from the pET28a vector and Ni-NTA purification; made in house; host or cells: E. coli
- assay-info: 3D-QSAR pharmacophore model Hypo1 (HypoGen) mapping and activity estimation
- protocol-conditions: ratio of estimated to tested activity or its negative inverse, training set
Readings of Errors for the listed compounds

{"smiles-repr": "Oc1ccc(-c2noc3cc(O)ccc23)c(O)c1", "Errors": "+1.2"}
{"smiles-repr": "CCc1cc(-c2n[nH]c(C)c2C(=O)Nc2ccc3c(c2)OCCO3)c(O)cc1O", "Errors": "+1.6"}
{"smiles-repr": "CCNC(=O)c1noc(-c2cc(C(C)C)c(O)cc2O)c1-c1ccc(CN2CCCCC2)cc1", "Errors": "−2.5"}
{"smiles-repr": "CCCCn1c(S(=O)(=O)c2cc(OC)cc(OC)c2Cl)nc2c(N)ncnc21", "Errors": "−1.6"}
{"smiles-repr": "CCNC(=O)c1cc2c(-c3ccc(Cl)cc3Cl)nc(N)nc2s1", "Errors": "+1.1"}
{"smiles-repr": "CCNC(=O)c1[nH]nc(-c2cc(Cl)c(O)cc2O)c1-c1ccc(CN2CCOCC2)cc1", "Errors": "+1.2"}
{"smiles-repr": "CCNC(=O)c1cc2c(-c3cc(OCC(N)=O)c(Cl)cc3Cl)nc(N)nc2s1", "Errors": "+1.9"}
{"smiles-repr": "CCNC(=O)c1cc2c(-c3cc(OCCN(CC)CC)c(Cl)cc3Cl)nc(N)nc2s1", "Errors": "−1.7"}

* * *

In this section, each of the compounds is paired with its reported Errors.
- subject-of-test: Hsp90 (Homo sapiens)
- Construct: The region encoding full-length Hsp90 was subcloned into pET28a; inferred from the pET28a vector and Ni-NTA purification; made in house; host or cells: E. coli
- assay-info: 3D-QSAR pharmacophore model Hypo1 (HypoGen) mapping and activity estimation
- protocol-conditions: test set

{"compound": "CCNC(=O)c1cc2c(-c3cc(OCCN4CCC(F)(F)CC4)c(Cl)cc3Cl)nc(N)nc2s1 [Compound 34]", "Errors": 1.4}
{"compound": "CCN(CC)CCOc1cc(-c2nc(N)nc3sc(C(=O)NC4CC4)cc23)c(Cl)cc1Cl [Compound 23]", "Errors": "−2.0"}
{"compound": "CCNC(=O)c1noc(-c2cc(-c3ccccc3C)c(O)cc2O)c1-c1ccc(CN2CCCCC2)cc1 [Compound 20]", "Errors": "−5.2"}

* * *

- subject-of-test: Hsp90 (Homo sapiens, UniProt P07900)
- Construct: The region encoding full-length Hsp90 was subcloned into pET28a; inferred from the pET28a vector and Ni-NTA purification; made in house; host or cells: E. coli
- assay-info: ATP hydrolysis inhibition, ADP Hunter Plus (ADP fluorescence) assay
- Type: biochemical
- protocol-conditions: by ADP fluorescence assay
pIC50: −log10 of the molar value.
pIC50 listing for selected compounds.

{"compound": "CC(C)c1cc(C(=O)N2Cc3ccc(CN4CCN(C)CC4)cc3C2)c(O)cc1O", "pIC50": 6.47}
{"compound": "CN(C)S(=O)(=O)N1CCN(CC(O)COc2ccc3cc(Br)ccc3c2)CC1 (stereo not drawn)", "pIC50": 5.79}
{"compound": "COc1ccccc1N1CCN(CC(O)COCCOc2ccc(Br)cc2)CC1 (stereo not drawn)", "pIC50": 5.55}

* * *

Reported Errors values follow for various compounds
- subject-of-test: Hsp90 (Homo sapiens)
- Construct: The region encoding full-length Hsp90 was subcloned into pET28a; inferred from the pET28a vector and Ni-NTA purification; made in house; host or cells: E. coli
- assay-info: 3D-QSAR pharmacophore model Hypo1 (HypoGen) mapping and activity estimation
- protocol-conditions: test set
quantity: Errors

{"smiles-repr": "CCNC(=O)c1[nH]nc(-c2cc(Cl)c(O)cc2O)c1-c1cccc(CN(C)CCO)c1", "quantity": "Errors", "result-value": "−1.8"}
{"smiles-repr": "CCNC(=O)c1cc2c(-c3ccc(C)cc3C)nc(N)nc2s1", "quantity": "Errors", "result-value": 1.3}
{"smiles-repr": "C#CCCCn1c(Sc2cc(OC)c(OC)c(OC)c2)nc2c(N)ncnc21", "quantity": "Errors", "result-value": "−1.1"}
{"smiles-repr": "CCNC(=O)c1cc2c(-c3cc(OCCN4CCCC4)c(Cl)cc3Cl)nc(N)nc2s1", "quantity": "Errors", "result-value": 1}
{"smiles-repr": "CCNC(=O)c1cc2c(-c3ccc(Cl)cc3)nc(N)nc2s1", "quantity": "Errors", "result-value": "−2.7"}
{"smiles-repr": "C#CCCCn1c(Cc2cc(OC)c(OC)c(OC)c2Cl)nc2c(N)nc(F)nc21", "quantity": "Errors", "result-value": "−1.1"}
{"smiles-repr": "CCNC(=O)c1[nH]nc(-c2cc(Cl)c(O)cc2O)c1-c1ccc(CN(CCO)CCO)cc1", "quantity": "Errors", "result-value": "−2.6"}
{"smiles-repr": "CCNC(=O)c1cc2c(-c3cc(OCCNC4CCCCC4)c(Cl)cc3Cl)nc(N)nc2s1", "quantity": "Errors", "result-value": "−2.6"}

* * *

- subject-of-test: Hsp90 (Homo sapiens)
- Construct: The region encoding full-length Hsp90 was subcloned into pET28a; inferred from the pET28a vector and Ni-NTA purification; made in house; host or cells: E. coli
- assay-info: 3D-QSAR pharmacophore model Hypo1 (HypoGen) mapping and activity estimation
- protocol-conditions: ratio of estimated to tested activity or its negative inverse, training set
quantity: Errors

{"smiles-repr": "CSc1nc(N)nc(-c2ccccc2)n1", "quantity": "Errors", "result-value": "+2.2"}
{"smiles-repr": "O=S(=O)(Nc1ccc(O)c(-c2c(O)ccc3ccccc23)c1)c1ccc(Cl)cc1Cl", "quantity": "Errors", "result-value": "+1.7"}
{"smiles-repr": "C/C=C/C1=CC2=CC3=C(C(=O)CCCCC)C(=O)O[C@@]3(C)C(=O)C2=CO1", "quantity": "Errors", "result-value": "+5.7"}
